experiment: JC-1 mitochondrial signal, unstimulated adipocytes – cell-based, JC-1 fluorescence, 3T3-L1 adipocytes, 24 h, 100 nL compound, profiling panel (AID 1168); details: JC-1 mitochondrial fluorescence, higher = more signal, called active from +8 up or from −8 down; further: test concentration not given here
Kindly return True if reported z-score is no lower than -0.5; return False if it is lower.

Examples with answers:
In: Is it the case that `CC(C)NC(=O)[C@@H]1c2ccccc2C(=O)N(Cc2ccc(OC(F)(F)F)cc2)[C@H]1c1ccc(CO)cc1` has z-score reaching or exceeding -0.5?
Out: False

In: Is it the case that OCCCC1=CC(c2ccc(CN3CCCC3)cc2)N(Cc2cccc(OC(F)(F)F)c2)CC1 (stereo not drawn) has z-score reaching or exceeding -0.5?
Out: True

In: Is it the case that `C=CCN1C(=O)[C@]2(O[C@H](CCn3cc([C@H](O)c4ccccc4)nn3)[C@@H]([Si](C)(C)c3ccc(OC)cc3)[C@@H]2C)c2cc(NC(=O)c3ccc(OC)cc3)ccc21` has z-score reaching or exceeding -0.5?
Out: True

***
In: Is it the case that `O=C(NCc1ccccc1)[C@@H]1c2ccccc2C(=O)N(Cc2cc(C(F)(F)F)cc(C(F)(F)F)c2)[C@H]1c1ccc(CO)cc1` has z-score reaching or exceeding -0.5?
Out: True

In: Is it the case that `C=CCOC(=O)[C@H]1[C@@H]2C(=O)O[C@@H](c3ccccc3)[C@@H](c3ccccc3)N2[C@@H](c2ccc(OCCOC(=O)[C@@H]3C[C@@H]4C(=O)N[C@@H](CCCC[N+](C)(C)C)C(=O)N4[C@@H]3c3ccc(O)cc3)cc2)[C@]12C(=O)Nc1ccc(I)cc12` has z-score reaching or exceeding -0.5?
Out: True

In: Is it the case that `COC(=O)C(CC#Cc1ccc2c(c1)[C@]1(C(=O)N2)[C@H](c2ccccc2OCCO)N2[C@H](c3ccccc3)[C@H](c3ccccc3)OC(=O)[C@H]2[C@@H]1C(=O)N1CCc2cc(OC)c(OC)cc2C1)C(=O)OC` has z-score reaching or exceeding -0.5?
Out: True
